Cited source for all entries: ChEMBL document CHEMBL4219118

Target: Cathepsin B (Homo sapiens)
Experiment: Mixed inhibition of recombinant human cathepsin B exopeptidase activity assessed as inhibitory constant for enzyme-inhibitor complex using Abz-Gly-Ile-Val-Arg-Ala-Lys(Dnp)-OH as substrate in presence of pH 5 acetate buffer by fluorescence assay
pKi: −log10 of the molar value.
Measured quantity: pKi

Smiles code: N#CCN(Cc1ccccc1)C(=O)c1ccc2c([N+](=O)[O-])ccc(O)c2n1
Observed result: 3.81

Smiles code: N#CCNC(=O)c1cc([N+](=O)[O-])c2cccnc2c1O
Observed result: 3.89

Smiles code: Cc1ccc2c([N+](=O)[O-])ccc(O)c2n1
Observed result: 3.33

Smiles code: COCCCOc1cc(-c2ccc([N+](=O)[O-])c3cccnc23)ccc1OC
Observed result: 3.93

Smiles code: N#CCN(Cc1ccccc1)C(=O)c1cc([N+](=O)[O-])c2cccnc2c1O
Observed result: 3.73

Smiles code: N#CCN(Cc1ccccc1)C(=O)c1ccc2c([N+](=O)[O-])cc([N+](=O)[O-])c(O)c2n1
Observed result: 3.81

Smiles code: N#CCNC(=O)c1ccc2c([N+](=O)[O-])cc([N+](=O)[O-])c(O)c2n1
Observed result: 3.70

Smiles code: CN(CC#N)C(=O)c1ccc2c([N+](=O)[O-])cc([N+](=O)[O-])c(O)c2n1
Observed result: 3.59

----------
Target: UniProt P07858
Experiment: Non-competitive inhibition of recombinant human cathepsin B exopeptidase activity assessed as inhibitory constant for enzyme-substrate-inhibitor complex using Abz-Gly-Ile-Val-Arg-Ala-Lys(Dnp)-OH as substrate in presence of pH 5 acetate buffer by fluorescence assay
pKi: −log10 of the molar value.
Measured pKi of individual entries
Measured quantity: pKi

Smiles code: N#CC1(NC(=O)c2cc([N+](=O)[O-])c3cccnc3c2O)CC1
Test system: UniProt P07858
Observed result: 3.73
//
Smiles code: N#CCN(Cc1ccccc1)C(=O)c1cc([N+](=O)[O-])ccc1O
Test system: UniProt P07858
Observed result: 4.02
//
Smiles code: N#CCNC(=O)c1ccc([N+](=O)[O-])c2cccnc12
Test system: UniProt P07858
Observed result: 3.72
//
Smiles code: O=[N+]([O-])c1ccc(O)c(CN2CCOCC2)c1
Test system: UniProt P07858
Observed result: 4.01
//
Smiles code: N#Cc1ccc2c([N+](=O)[O-])ccc(O)c2n1
Test system: UniProt P07858
Observed result: 3.67
//
Smiles code: O=C(c1cc([N+](=O)[O-])c2cccnc2c1O)N1CCCCC1
Test system: UniProt P07858
Observed result: 3.44
//
Smiles code: N#Cc1ccc2c([N+](=O)[O-])cc([N+](=O)[O-])c(O)c2n1
Test system: UniProt P07858
Observed result: 3.72
//
Smiles code: CN(CC#N)C(=O)c1cc([N+](=O)[O-])c2cccnc2c1O
Test system: UniProt P07858
Observed result: 3.92
//
Smiles code: COCCN(CC1CCN(Cc2nc3ccccc3s2)CC1)C(=O)c1cc([N+](=O)[O-])c2cccnc2c1O
Test system: UniProt P07858
Observed result: 3.74
//
Smiles code: O=C(c1cc([N+](=O)[O-])c2cccnc2c1O)N1CCOCC1
Test system: UniProt P07858
Observed result: 3.91
//
Smiles code: N#CC1(NC(=O)c2ccc3c([N+](=O)[O-])ccc(O)c3n2)CC1
Test system: UniProt P07858
Observed result: 3.81
//
Smiles code: N#CCNC(=O)c1ccc2c([N+](=O)[O-])ccc(O)c2n1
Test system: UniProt P07858
Observed result: 3.72
//
Smiles code: O=C(c1cc([N+](=O)[O-])ccc1O)N1CCOCC1
Test system: UniProt P07858
Observed result: 3.75

----------
Molecular target: Cathepsin B (Homo sapiens)
Assay: Non-competitive inhibition of recombinant human cathepsin B endopeptidase activity assessed as inhibitory constant for enzyme-inhibitor complex using Z-Arg-Arg-AMC as substrate in presence of pH 6 phosphate buffer by fluorescence assay
For each record, check the reported Ki: if it is below 300 µM write rule met, else write rule not met.

Smiles code: O=C(c1cc([N+](=O)[O-])ccc1O)N1CCOCC1
Label class: rule met
//
Smiles code: N#CCN(Cc1ccccc1)C(=O)c1cc([N+](=O)[O-])ccc1O
Label class: rule not met
//
Smiles code: CN(CC#N)C(=O)c1cc([N+](=O)[O-])c2cccnc2c1O
Label class: rule met
//
Smiles code: N#CCNC(=O)c1cc([N+](=O)[O-])ccc1O
Label class: rule met
//
Smiles code: O=C(c1cc([N+](=O)[O-])c2cccnc2c1O)N1CCOCC1
Label class: rule met
//
Smiles code: N#CC1(NC(=O)c2cc([N+](=O)[O-])ccc2O)CC1
Label class: rule met

----------
Biological target: Cathepsin B (Homo sapiens, UniProt P07858)
Assay: Inhibition of recombinant human cathepsin B endopeptidase activity assessed as inhibitory constant for enzyme-substrate-inhibitor complex using Z-Arg-Arg-AMC as substrate in presence of pH 6 phosphate buffer by fluorescence assay

Smiles code: O=[N+]([O-])c1ccc(-c2ccco2)c2ncccc12
Ki: Not Active

Smiles code: COCCN(CC1CCN(Cc2nc3ccccc3o2)CC1)C(=O)c1cc([N+](=O)[O-])c2cccnc2c1O
Ki: Not Active

Smiles code: CN(CC#N)Cc1cc([N+](=O)[O-])ccc1O
Ki: Not Active

Smiles code: N#Cc1ccc(-c2ccc([N+](=O)[O-])c3cccnc23)cc1
Ki: Not Active

Smiles code: N#Cc1ccc(-c2ccc(-c3ccc([N+](=O)[O-])c4cccnc34)o2)cc1
Ki: Not Active

Smiles code: CN(CC#N)Cc1ccc2c([N+](=O)[O-])ccc(O)c2n1
Ki: Not Active

Smiles code: O=[N+]([O-])c1ccc(Br)c2ncccc12
Ki: Not Active

Smiles code: Cc1cccc(-c2ccc([N+](=O)[O-])c3cccnc23)c1
Ki: Not Active

Smiles code: CC(=O)c1ccc(-c2cc(-c3ccc([N+](=O)[O-])c4cccnc34)c(-c3ccc(C(C)=O)cc3)o2)cc1
Ki: Not Active

Smiles code: O=[N+]([O-])c1ccc(-c2ccsc2)c2ncccc12
Ki: Not Active

Smiles code: O=C(NCC1CCN(Cc2nc3ccccc3s2)CC1)c1cc([N+](=O)[O-])c2cccnc2c1O
Ki: Not Active

Smiles code: O=[N+]([O-])c1ccc(-c2ccoc2)c2ncccc12
Ki: Not Active

Smiles code: Cc1ccc(-c2ccc([N+](=O)[O-])c3cccnc23)cc1
Ki: Not Active

Smiles code: O=C(NCC1CCN(C2Cc3ccccc3C2)CC1)c1cc([N+](=O)[O-])c2cccnc2c1O
Ki: Not Active

Smiles code: CN(CC#N)C(=O)c1cc([N+](=O)[O-])ccc1O
Ki: Not Active

Smiles code: O=[N+]([O-])c1ccc(O)c(CN2CCCCC2)c1
Ki: Not Active

Smiles code: O=[N+]([O-])c1ccc(-c2occc2-c2ccc([N+](=O)[O-])c3cccnc23)cc1
Ki: Not Active

Smiles code: N#CCNCc1cc([N+](=O)[O-])ccc1O
Ki: Not Active

Smiles code: Cc1ccc(-c2ccc([N+](=O)[O-])c3cccnc23)s1
Ki: Not Active

Smiles code: O=[N+]([O-])c1cccc(-c2ccc([N+](=O)[O-])c3cccnc23)c1
Ki: Not Active

Smiles code: N#Cc1ccc([N+](=O)[O-])c2cccnc12
Ki: Not Active

Smiles code: Cc1ccc([N+](=O)[O-])c2cccnc12
Ki: Not Active

Smiles code: O=[N+]([O-])c1ccc(-c2c(-c3ccc([N+](=O)[O-])c4cccnc34)oc3ccccc23)cc1
Ki: Not Active

Smiles code: CC1CCN(Cc2cc([N+](=O)[O-])ccc2O)CC1
Ki: Not Active

Smiles code: CC(=O)c1ccc(-c2ccc(-c3ccc([N+](=O)[O-])c4cccnc34)s2)cc1
Ki: Not Active

Smiles code: CC(=O)c1ccc(-c2c(-c3ccc([N+](=O)[O-])c4cccnc34)oc3ccccc23)cc1
Ki: Not Active

Smiles code: N#CCN(Cc1ccccc1)Cc1cc([N+](=O)[O-])ccc1O
Ki: Not Active

Smiles code: CC1CCN(C(=O)c2cc([N+](=O)[O-])ccc2O)CC1
Ki: Not Active

Smiles code: O=[N+]([O-])c1ccc(-c2ccccc2)c2ncccc12
Ki: Not Active

Smiles code: O=[N+]([O-])c1ccc(-c2cc3ccccc3s2)c2ncccc12
Ki: Not Active

Smiles code: O=C(O)c1ccc2c([N+](=O)[O-])cc([N+](=O)[O-])c(O)c2n1
Ki: Not Active

Smiles code: O=[N+]([O-])c1ccc(-c2cc3ccccc3o2)c2ncccc12
Ki: Not Active

Smiles code: CC(=O)c1ccc(-c2occc2-c2ccc([N+](=O)[O-])c3cccnc23)cc1
Ki: Not Active

Smiles code: O=C(O)c1ccc([N+](=O)[O-])c2cccnc12
Ki: Not Active
